# Tested on: SF-539
# method_description: NCI tumour cell line growth inhibition, 48 h
Calls of active or inactive are those of the source. No stated cut-off is given here; in the data, active = GI50 up to about 1.1 µM and inactive = higher.
readout_label: GI50

{"compound": "CN1CN(C2OC(CO)C(O)C2O)c2nc(N)[nH]c(=O)c21 (stereo unspecified)", "result": "> 100 µM (inactive)"}

q: What value of GI50 has been reported for the following compound? O=c1cnn(C2OC(CO)C(O)C(F)C2O)c(=O)[nH]1 (stereo unspecified)
a: > 100 µM (inactive)

###

# Test system: T47D
# method_description: NCI tumour cell line growth inhibition, 48 h
Active and inactive are the calls of the source. Cut-off read from the data, not from the text of the source: active = GI50 up to about 1.1 µM and inactive = higher.
Bench note: report the call from active, inactive

# example entries with known answers
{"molecule": "O=C(O)CSc1nc2ccccc2[nH]1", "label_class": "inactive"}
{"molecule": "CC(C)OP(=O)(OC(C)C)C(C(C)C)N(C)/C(N)=N/C#N (centres undefined)", "label_class": "inactive"}
{"molecule": "CCCCC1CCCCCCc2[nH]c(/C=C3\\N=C(c4ccc[nH]4)C=C3OC)cc21 (centres undefined)", "label_class": "active"}

q: State the result this test recorded for CC(=O)C(C(C)=O)=C1CCCC(O)O1 (centres undefined) .
a: inactive

###

# Tested on: NCI/ADR-RES
# method_description: NCI tumour cell line growth inhibition, 48 h
Active and inactive are the calls of the source. No stated cut-off is given here; in the data, active = GI50 up to about 1.1 µM and inactive = higher.
Bench note: report the call from y for active, n for inactive

{"molecule": "CCC1(CC)C(=O)OC(=O)C1(CC)CC", "label_class": "n"}
{"molecule": "CCC(C)[C@H]1C(=O)N=C(N)N1C(=O)OCc1ccccc1 (stereo not given in full)", "label_class": "n"}
{"molecule": "Nc1ccn(C2CC(O)C(COP(=O)(S)OC3CC(n4ccc(N)nc4=O)OC3CO)O2)c(=O)n1 (stereo not given)", "label_class": "n"}
{"molecule": "CCn1c(=O)c2c3cc(OC(C)=O)ccc3oc2c2ccc(OC(C)=O)cc21", "label_class": "n"}
{"molecule": "CC[C@@]1(O)CC(OC2CC(N3CCOCC3)C(O)C(C)O2)c2c(O)c3c(c(O)c2[C@H]1O)C(=O)c1cccc(O)c1C3=O (stereo not given in full)", "label_class": "y"}

q: State the result this test recorded for COc1ccc2oc(=N)c(C(=O)Nc3ccccn3)cc2c1 .
a: n

q: Now this one: CC1=NN(c2nc(N)nc(/C(C#N)=C\C3COc4ccccc4C3=O)n2)C(C)(C)C1 (stereo not given)
a: n

q: Now this one: CC(C)Cc1c(C#N)c(C#N)c(N)n1Cc1ccccc1
a: n

q: Now this one: CC(=O)O/N=C/c1c2ccccc2cc2ccccc12
a: n

q: Now this one: CC(C)NC(=O)N(Nc1ccccc1)C(C)(C)C
a: n

q: Now this one: CCN(CC(=O)O)C(=O)c1cccnc1
a: n

###

# System: HOP-62
# method_description: NCI tumour cell line growth inhibition, 48 h
Calls of active or inactive are those of the source. Cut-off read from the data, not from the text of the source: active = GI50 up to about 1.1 µM and inactive = higher.
Bench note: report the call from true for active, false for inactive

# example entries with known answers
{"compound": "O=C(NCCCOC(=O)CCCCCCCCC(=O)OCCCNC(=O)NC(=O)c1c[nH]c(=O)[nH]c1=O)NC(=O)c1c[nH]c(=O)[nH]c1=O", "assayed_target": "HOP-62", "label_class": "false"}
{"compound": "Cc1ccc(NC(=O)C(=O)C2NC(=S)NC2=O)c([N+](=O)[O-])c1 (stereo not drawn)", "assayed_target": "HOP-62", "label_class": "false"}
{"compound": "Nc1nc(O)c2ncn(C3OC(CO)C(O)C3O)c2n1 (stereo not drawn)", "assayed_target": "HOP-62", "label_class": "false"}
{"compound": "COc1ccc(-c2c(-c3ccccc3)c(C)nc3[nH]c(=S)[nH]c(=S)c23)cc1OC", "assayed_target": "HOP-62", "label_class": "false"}
{"compound": "COC1(OC)C[C@H](C)[C@@]23O[C@]24C2=CC(=O)C=CC2=N[C@H]3C#C/C=C\\C#C[C@]14O", "assayed_target": "HOP-62", "label_class": "true"}
{"compound": "CC(C)OP(=O)(OC(C)C)C(C(C)C)N(C)/C(N)=N/C#N (stereo not drawn)", "assayed_target": "HOP-62", "label_class": "false"}

q: State the result this test recorded for FC(F)(F)C1(Cl)C(Cl)(c2ccccc2)C1(Cl)c1ccccc1 (stereo not drawn) .
a: false

q: Now this one: CC(C)(CO[C@H]1C[C@H]2CC[C@@]1(C)C2(C)C)[N+](=O)[O-]
a: false

q: Now this one: CC(NNC(=O)c1ccncc1)c1ccccc1 (stereo not drawn)
a: false

q: Now this one: CC1(Cl)C(=O)NC(=O)N([C@H]2C[C@H](O)[C@@H](CO)O2)C1N=[N+]=[N-] (stereo partly drawn)
a: false

q: Now this one: CC1=NNC(=O)C1C1CC(c2c[nH]c3ccccc23)=NNC1=S (stereo not drawn)
a: false

###

# System: SF-295
# method_description: NCI tumour cell line growth inhibition, 48 h
Activity calls are given as the source filed them. Rule as the data show it: active = GI50 up to about 1.1 µM and inactive = higher.
Bench note: report the call from active, inactive

# example entries with known answers
{"compound": "O=S(=O)(O)Nc1ccc(-c2nc3ccccc3s2)cc1Cl", "label_class": "inactive"}
{"compound": "S=C(Nc1ccc2cn[nH]c2c1)Nc1ccc2cn[nH]c2c1", "label_class": "inactive"}
{"compound": "O=C1CC2C(=O)N(Cc3ccccc3)C1C(S(=O)(=O)c1ccccc1)C2S(=O)(=O)c1ccccc1 (stereo not given)", "label_class": "inactive"}
{"compound": "CN(C)CCn1c(=O)c2ccc(NCCCN(C)CCCNc3ccc4c(=O)n(CCN(C)C)c(=O)n5c6ccccc6c(=O)c3c45)c3c(=O)c4ccccc4n(c1=O)c23", "label_class": "active"}
{"compound": "CCOC(=O)Nc1ccc(S(=O)(=O)OC)cc1.CCOC(=O)Nc1ccc(S(=O)(=O)OC)cc1.Nc1ncnc2c1ncn2C1OC(CO)C(O)C1O (stereo not given)", "label_class": "inactive"}
{"compound": "C[C@H]1CC(=O)C[C@@H]2CC[C@@H]3[C@H](CC[C@]4(C)C(OC(=O)c5cccc6c(=O)c7ccccc7[nH]c56)CC[C@@H]34)[C@]21C (stereo not given in full)", "label_class": "inactive"}
{"compound": "Cc1ccc(P(c2ccc(C)cc2)c2ccc(C)cc2)cc1", "label_class": "inactive"}
{"compound": "COc1ccc(CCN2C(=O)C=CC2=O)cc1OC", "label_class": "inactive"}
{"compound": "COc1c(C2=NC(C(C)C)CO2)ccc2ccccc12 (stereo not given)", "label_class": "inactive"}

Next up:
q: State the result this test recorded for COc1cc2c(cc1OC)-c1cc(OC)c(OC)cc1[C@H]1CN3CCC[C@@]3(O)C=C21 .
a: active

###

# Tested on: OVCAR-4
# method_description: NCI tumour cell line growth inhibition, 48 h
Active and inactive are the calls of the source. Cut-off read from the data, not from the text of the source: active = GI50 up to about 1.1 µM and inactive = higher.
readout_label: GI50

Example results:
{"compound": "CC1(C)OCN(c2ccc(N3CCOCC3)cc2)Cn2c1nc1ccccc12", "GI50": "29.6 µM (inactive)"}
{"compound": "O=C1/C(=C\\c2ccc(Br)cc2)CCCc2ccccc21", "GI50": "12.3 µM (inactive)"}

q: What value of GI50 has been reported for the following compound? O=S(=O)(O)C(CO)c1ccccc1.O=S(=O)(O)Cc1ccccc1 (configuration not stated)
a: > 100 µM (inactive)

q: Now this one: CN(C)CCCNC(=O)c1cc(NC(=O)c2cc(NS(=O)(=O)c3ccc4c(c3)C(=O)c3ccccc3C4=O)cn2C)cn1C
a: > 100 µM (inactive)

###

# Tested on: ACHN
# method_description: NCI tumour cell line growth inhibition, 48 h
The source made the active and inactive calls. No stated cut-off is given here; in the data, active = GI50 up to about 1.1 µM and inactive = higher.
readout_label: GI50

Example results:
{"molecule": "C/C(=N/NC(=O)CC(=O)N(C(=O)c1ccccc1Cl)c1ccc(C)cc1)c1cc2ccccc2oc1=O", "GI50": "> 100 µM (inactive)"}
{"molecule": "CCOC1=NC(=O)CC(c2ccccc2)S1 (stereo not drawn)", "GI50": "> 100 µM (inactive)"}

q: What value of GI50 has been reported for the following molecule? Nc1ccn(C2CC(O)C(COP(=O)(S)OC3CC(n4ccc(N)nc4=O)OC3CO)O2)c(=O)n1 (stereo not drawn)
a: > 100 µM (inactive)

###

# System: EKVX
# method_description: NCI tumour cell line growth inhibition, 48 h
The source made the active and inactive calls. No stated cut-off is given here; in the data, active = GI50 up to about 1.1 µM and inactive = higher.
Each item that follows carries a reported GI50.

Example results:
{"molecule": "C=CCSc1nnc2cc(CN3CCCC3)c(-c3ccc(Cl)cc3)nn12", "result": "19 µM (inactive)"}
{"molecule": "CCN(CC)CC1CCCCCCCCCCC1=O (centres undefined)", "result": "> 100 µM (inactive)"}
{"molecule": "O=[N+]([O-])c1nccn1COCCI", "result": "> 100 µM (inactive)"}
{"molecule": "CC1=C[P+](Cc2ccccc2)(c2ccccc2)CC1 (centres undefined)", "result": "54.6 µM (inactive)"}
{"molecule": "Cc1ccc(NC(=O)C(=O)C2NC(=S)NC2=O)c([N+](=O)[O-])c1 (centres undefined)", "result": "57.3 µM (inactive)"}

q: What value of GI50 has been reported for the following molecule? CC(C)(C)C(=O)c1c(O)c2ccccc2c2ccccc2c1=O
a: > 100 µM (inactive)

q: Now this one: COC(=O)/C=C/c1ccccc1N=[S@](C)(=O)c1ccc(C)cc1
a: 37.4 µM (inactive)

q: Now this one: CCc1[nH]c(=O)c2oc3cc4ccccc4cc3c2c1C(=O)O
a: > 10 µM (inactive)

q: Now this one: CCOC(=O)C1Nc2ccc([N+](=O)[O-])cc2[C@H]2OCC[C@@H]12 (some centres undefined)
a: > 100 µM (inactive)
